A compilation of published IC50 results with SIK3 (Homo sapiens).
Sequence (Q9Y2K2 whole entry): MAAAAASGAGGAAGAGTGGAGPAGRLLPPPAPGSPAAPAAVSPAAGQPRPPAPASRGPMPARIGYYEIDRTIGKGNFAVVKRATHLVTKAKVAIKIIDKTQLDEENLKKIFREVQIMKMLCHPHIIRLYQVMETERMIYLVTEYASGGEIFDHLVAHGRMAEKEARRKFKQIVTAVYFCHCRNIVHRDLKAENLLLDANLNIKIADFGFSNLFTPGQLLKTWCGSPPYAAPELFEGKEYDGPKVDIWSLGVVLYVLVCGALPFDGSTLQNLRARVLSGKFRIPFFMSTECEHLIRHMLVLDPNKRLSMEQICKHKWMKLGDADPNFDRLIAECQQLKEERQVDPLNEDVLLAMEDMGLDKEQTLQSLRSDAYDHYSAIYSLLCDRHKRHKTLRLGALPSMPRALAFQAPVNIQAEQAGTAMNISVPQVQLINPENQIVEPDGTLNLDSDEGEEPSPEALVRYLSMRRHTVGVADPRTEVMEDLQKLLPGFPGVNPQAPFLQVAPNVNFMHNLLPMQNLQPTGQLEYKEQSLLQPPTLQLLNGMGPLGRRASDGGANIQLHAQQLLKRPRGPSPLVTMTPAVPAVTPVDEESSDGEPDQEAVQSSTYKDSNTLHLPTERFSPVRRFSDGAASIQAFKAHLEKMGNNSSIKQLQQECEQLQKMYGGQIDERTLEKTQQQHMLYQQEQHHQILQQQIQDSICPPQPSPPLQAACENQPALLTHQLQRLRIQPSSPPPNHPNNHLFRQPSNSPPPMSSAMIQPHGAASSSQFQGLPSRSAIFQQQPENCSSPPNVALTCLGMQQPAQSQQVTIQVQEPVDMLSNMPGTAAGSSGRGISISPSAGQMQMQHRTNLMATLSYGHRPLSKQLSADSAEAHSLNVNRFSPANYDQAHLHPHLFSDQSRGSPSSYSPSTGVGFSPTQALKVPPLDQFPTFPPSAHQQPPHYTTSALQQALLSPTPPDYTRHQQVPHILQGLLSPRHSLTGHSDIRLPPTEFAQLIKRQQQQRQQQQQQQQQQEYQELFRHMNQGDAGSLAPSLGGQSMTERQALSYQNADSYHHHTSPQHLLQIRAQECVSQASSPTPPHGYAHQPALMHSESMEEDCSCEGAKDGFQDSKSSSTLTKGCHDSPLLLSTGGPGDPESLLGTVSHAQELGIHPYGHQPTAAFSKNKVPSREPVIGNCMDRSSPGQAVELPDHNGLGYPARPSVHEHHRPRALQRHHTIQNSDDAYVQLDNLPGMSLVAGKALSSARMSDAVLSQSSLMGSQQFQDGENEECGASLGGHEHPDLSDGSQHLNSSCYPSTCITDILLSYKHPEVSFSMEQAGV

# annotated cases, reported IC50 shown
{"MOLECULE": "COc1cc(-c2cnc3cc(OCC4CC(=O)N(C)C4)ccn23)cc(OC(F)F)c1C(=O)NC1CC1 (stereo not drawn)", "RECORDED VALUE": "0.01 to 10 nM"}
{"MOLECULE": "COc1cc(-c2c3c(C#N)cc(-c4cnn(CC(F)(F)F)c4)cc3nn2C)cc2c1C(=O)NC[C@@H]2C (single isomer, unassigned)", "RECORDED VALUE": "5.1 nM"}
{"MOLECULE": "COc1cc(-c2cnc3cc(OC4CC5CCC4C5)ccn23)cc(OC(F)F)c1C(=O)NC1CC1 (stereo not drawn)", "RECORDED VALUE": "0.01 to 10 nM"}
{"MOLECULE": "COc1cc(-c2c3c(C(F)F)cc(-c4cnn(CC5(O)CCC5)c4)cc3nn2C)cc(OC(F)F)c1C(=O)N[C@@H]1CC1(F)F", "RECORDED VALUE": "1 nM"}
{"MOLECULE": "COc1cc(-c2c3c(C#N)cc(-c4cnn(CCC(C)(C)O)c4)cc3nn2C)cc(OC(F)F)c1C(=O)N[C@@H]1CC1(F)F", "RECORDED VALUE": "1.7 nM"}

Entry COc1cc(-c2cnc3cc(OCc4cccnc4)ccn23)cc(OC(F)F)c1C(=O)NC1CC1 under SIK3 (Homo sapiens) had IC50 of 0.01 to 10 nM

Summary line: CCCCn1cc(-c2cc(C#N)c3c(-c4cc(OC)c5c(c4)[C@@H](C)CNC5=O)n(C)nc3c2)cn1 (single isomer, unassigned) , SIK3 (Homo sapiens), reported IC50 = 2.7 nM

IC50 of COc1cc(-c2cnc3cc(OCCCN4C(C)CCCC4C)ccn23)cc(OC(F)F)c1C(=O)NC1CC1 (stereo not drawn) , assay on SIK3 (Homo sapiens), is 0.01 to 10 nM

IC50 of COc1cc(-c2cnc3cc(OCCCN4CCc5ncncc5C4)ccn23)cc(OC(F)F)c1C(=O)NC1CC1 , assay on SIK3 (Homo sapiens), is 0.01 to 10 nM

Entry COc1cc(-c2cnc3cc(OC4CCC4)ccn23)cc(OC(F)F)c1C(=O)NC1CC1 , SIK3 (Homo sapiens) data, IC50 value: 0.01 to 10 nM

The value of IC50 recorded for Fc1cccc(-c2c[nH]c3ncc(-c4ccsc4)cc23)c1Cl when tested on SIK3 (Homo sapiens) reads > 1000 nM

Let me check: COc1c(F)cc(F)cc1-c1c[nH]c2ncc(-c3cnn(C4CCN(CCO)CC4)c3)cc12 , system SIK3 (Homo sapiens), measured IC50 is < 100 nM

Noted IC50 for COc1cc(-c2cnc3cc(OCC4CCN(C)C4)ccn23)cc(OC(F)F)c1C(=O)NC1CC1 (stereo not drawn) , tested on SIK3 (Homo sapiens): 0.01 to 10 nM

SIK3 (Homo sapiens) data for COc1cc(-c2cnc3cc(OCC(C)(C)N4CCOCC4)ccn23)cc(OC(F)F)c1C(=O)NC1CC1 ; its IC50: 0.01 to 10 nM

Form: item COc1cc(-c2cnc3cc(OC[C@H]4COCCO4)ccn23)cc(OC(F)F)c1C(=O)NC1CC1 ; test system SIK3 (Homo sapiens); IC50: 0.01 to 10 nM

---

pIC50: −log10 of the molar value.
From various publications: pIC50 for SIK3 (Homo sapiens, UniProt Q9Y2K2).

{"COMPOUND": "COc1cc(-c2cnc3cc(OCC4CCCCN4CC(F)F)ccn23)cc(OC(F)F)c1C(=O)NC1CC1 (stereo not shown)", "QUANTITY MEASURED": "pIC50", "RECORDED VALUE": "8.00 to 11.00"}

Form field pIC50 for item COc1cc(-c2cnc3cc(OCC(=O)N(C)C)ccn23)cc(OC(F)F)c1C(=O)NC1CC1 on SIK3 (Homo sapiens, UniProt Q9Y2K2): 7.00 to 8.00

Field pIC50 (system: SIK3 (Homo sapiens, UniProt Q9Y2K2)) for entry CN(C(C)(C)C)S(=O)(=O)c1cccc(-c2cnc3[nH]cc(-c4cccc5c4OC(F)(F)O5)c3c2)c1 = > 7.00

Bench note, SIK3 (Homo sapiens, UniProt Q9Y2K2): entry COc1cc(-c2c3c(C(F)F)cc(-c4cnn(C)c4)cc3nn2C)cc(OC(F)F)c1C(=O)N1CC(O)(C(F)F)C1 , its pIC50 = 8.00

---

pIC50: −log10 of the molar value.
Reported pIC50 against UniProt:Q9Y2K2, gathered from multiple publications, appears below.

Previously resolved entries follow.
{"COMPOUND": "CCN1CCN(c2ccc(Nc3cc(-n4ccnc4Nc4c(C)cccc4C)ncn3)cc2)CC1", "MEASURED ON": "UniProt:Q9Y2K2", "RECORDED VALUE": 6.92}
{"COMPOUND": "CCS(=O)(=O)N1CCC(n2cc(-c3cnc4[nH]cc(-c5ccc6c(c5)OC(F)(F)O6)c4c3)cn2)CC1", "MEASURED ON": "UniProt:Q9Y2K2", "RECORDED VALUE": "< 6.00"}
{"COMPOUND": "COc1cc(-c2cnc3cc(OCCN4CCCC4=O)ccn23)cc(OC(F)F)c1C(=O)NC1CC1", "MEASURED ON": "UniProt:Q9Y2K2", "RECORDED VALUE": "8.00 to 11.00"}
{"COMPOUND": "CCn1cc(-c2cc(C#N)c3c(-c4cc(OC)c5c(c4)C(C)(C)CNC5=O)n(C)nc3c2)cn1", "MEASURED ON": "UniProt:Q9Y2K2", "RECORDED VALUE": 7.89}

Record COc1cc(-c2cnc3cc(OCCCN4CCCC(C#N)C4)ccn23)cc(OC(F)F)c1C(=O)NC1CC1 (stereo not drawn) has UniProt:Q9Y2K2 pIC50 equal to 8.00 to 11.00

Measured pIC50 for this entry COc1cc(-c2cnc3cc(OCC4(C)CCCCN4)ccn23)cc(OC(F)F)c1C(=O)NC1CC1 (stereo not drawn) on UniProt:Q9Y2K2: 8.00 to 11.00

The compound COc1cc(-c2cnc3cc(OCCN4C[C@@H]5C[C@H]4CO5)ccn23)cc(OC(F)F)c1C(=O)NC1CC1 on UniProt:Q9Y2K2: pIC50 was 8.00 to 11.00

Lab entry: UniProt:Q9Y2K2 assay, compound COc1cc(-c2cnc3cc(OCC4CCCO4)ccn23)cc(OC(F)F)c1C(=O)NC1CC1 (stereo not drawn) , pIC50 = 8.00 to 11.00

---

pIC50 for SIK3 (Homo sapiens, UniProt Q9Y2K2) - collated from the literature.
pIC50: −log10 of the molar value.

{"MOLECULE": "CCN(CC)CCOCCOc1ccn2c(-c3cc(OC)c(C(=O)NC4CC4)c(OC(F)F)c3)cnc2c1", "RECORDED VALUE": "7.00 to 8.00"}
{"MOLECULE": "COc1cc(-c2cnc3cc(OCc4ccncc4)ccn23)cc(OC(F)F)c1C(=O)NC1CC1", "RECORDED VALUE": "8.00 to 11.00"}
{"MOLECULE": "COc1cc(-c2cnc3cc(OCC4CCCN4C)ccn23)cc(OC(F)F)c1C(=O)NC1CC1 (stereo not drawn)", "RECORDED VALUE": "8.00 to 11.00"}
{"MOLECULE": "COc1cc(-c2c3c(C#N)cc(-c4cnn(C)c4)cc3nn2C)cc(OC(F)F)c1C(=O)N1CC(C)(C(F)F)C1", "RECORDED VALUE": 8.24}
{"MOLECULE": "CNC1CC(Oc2ccn3c(-c4cc(OC)c(C(=O)NC5CC5)c(OC(F)F)c4)cnc3c2)C1 (stereo not drawn)", "RECORDED VALUE": "8.00 to 11.00"}
{"MOLECULE": "Cc1cc(-c2cnc3cc(OCCN4CCOCC4)ccn23)cc(OC(F)F)c1C(=O)NC1CC1", "RECORDED VALUE": "8.00 to 11.00"}
{"MOLECULE": "COc1cc(-c2cnc3cc(OCCCN4CCC(F)(C(=O)O)CC4)ccn23)cc(OC(F)F)c1C(=O)NC1CC1", "RECORDED VALUE": "8.00 to 11.00"}
{"MOLECULE": "FC1(F)Oc2cccc(-c3c[nH]c4ncc(-c5cnn(C6CCNCC6)c5)cc34)c2O1", "RECORDED VALUE": "> 7.00"}
{"MOLECULE": "COc1cc(-c2cnc3cc(OCCCN4CC5(COC5)C4)ccn23)cc(OC(F)F)c1C(=O)NC1CC1", "RECORDED VALUE": "8.00 to 11.00"}
{"MOLECULE": "COc1cc(-c2c3c(C#N)cc(-c4cnn(C)c4)cc3nn2C)cc(OC(F)F)c1C(=O)N[C@@H]1C[C@@H]1F", "RECORDED VALUE": 8.66}

Known value: SIK3 (Homo sapiens, UniProt Q9Y2K2) pIC50 of the molecule COc1cc(-c2cnc3cc(OCC4(N)COC4)ccn23)cc(OC(F)F)c1C(=O)NC1CC1 equals 8.00 to 11.00

Fill in: SIK3 (Homo sapiens, UniProt Q9Y2K2) pIC50 for COc1cc(-c2cnc3cc(OCc4ccccc4)ccn23)cc(OC(F)F)c1C(=O)NC1CC1 = 8.00 to 11.00

The measured pIC50 that COc1cc(-c2cnc3cc(OCC4CCN4C(=O)OC(C)(C)C)ccn23)cc(OC(F)F)c1C(=O)NC1CC1 (stereo not drawn) showed for SIK3 (Homo sapiens, UniProt Q9Y2K2) is 8.00 to 11.00

Record COc1cc(-c2cnc3cc(OCCCN4CCCCC4)ccn23)cc(OC(F)F)c1C(=O)N[C@@H]1CC[C@H]1O (racemic) ; system SIK3 (Homo sapiens, UniProt Q9Y2K2); pIC50 = 7.00 to 8.00

Record O=S(=O)(c1cccc(-c2c[nH]c3nccc(-c4ccsc4)c23)c1)N1CCCC1 has SIK3 (Homo sapiens, UniProt Q9Y2K2) pIC50 equal to < 6.00
